Where do the numbers come from? From ChEMBL document CHEMBL2086334.

Experiment: Inhibition of alkaline phosphatase
readout: IC50
In your response, put the unit directly after the numeric value.

Summary for this compound, c1ccc([C@H]2CN3CCSC3=N2)cc1 : IC50 is 13.3 µM
